Test: Blood concentrations after oral administration of acetic acid extract or dried pulverized leaves to healthy rats
Format: in vivo, rat
Conditions: male, Crj:CD (SD) IGS, rat, in vivo, po, 0.5 g/kg, Dried pulverized leaves oral, healthy rats (animals 3, 4), 6 h
Measurement name: concentration at 6 h (ng/mL)
Please respond with the number in ng/mL and leave the unit unwritten.

Per the record, CC[C@@]12C=CCN3CC[C@]4(C(=C(C(=O)OC)C1)Nc1cc5c(cc14)[C@H]1[C@@H](O5)[C@H](O)[C@]4(CC)CC(C(=O)OC)=C5Nc6c(cc(O)c(OC)c6OC)[C@@]56CCN1[C@H]46)[C@H]32 (stereo in doubt) has concentration at 6 h of 28
